For each of the compounds below, state its IC50 at 72 h.
assay: DNDI: Cytotoxicity against L929 mouse fibroblasts, 72 hour.; type: toxicity, cell-based; conditions: mouse, L929 mouse fibroblasts
Answers are plain numbers, in µg/mL.

The following compounds have reported results that may help.
{"columns": ["compound", "unit_abbrev", "reported_measurement"],
 "data": [
  ["CN(C)CCNc1cc(-c2ccccc2)nc2cc(-c3cccc(F)c3)nn12", "µg/mL", 1.78],
  ["CCCCc1ccc(-c2nc(CNCCc3ccccc3)co2)cc1", "µg/mL", 2.3],
  ["CCCCCC(C)NCc1coc(-c2ccc(F)c(F)c2)n1 (centres undefined)", "µg/mL", 6.34]
]}

Consider the following items and state reported IC50 at 72 h for each.
1. CCCCc1ccc(-c2nc(CN3CCN(C)CC3)co2)cc1
2. Fc1ccc(-c2cc3nc(-c4ccccc4)cc(NCCCN4CCCC4)n3n2)cc1
3. CCCCCC(C)NCc1coc(-c2ccc(OCCc3ccccc3)cc2)n1 (centres undefined)
4. CCCCCC(C)NCc1coc(-c2ccc(OC(C)C)cc2)n1 (centres undefined)
5. CCCCCC(C)NCc1coc(-c2ccc(Oc3ccc(OC)cc3)cc2)n1 (centres undefined)
6. CCCCCC(C)NCc1coc(-c2ccc(C(F)(F)F)cc2)n1 (centres undefined)

[3.75, 6.92, 0.72, 2.58, 5.61, 3.55]

Consider the following items and state reported IC50 at 72 h for each.
1. CCCCCCCCCCOc1ccc(-c2nc(CN[C@@H]3C[C@@H]4C[C@H]([C@H]3C)C4(C)C)co2)cc1
2. CCCCCC(C)NCc1coc(Cc2ccc(OC)cc2)n1 (centres undefined)
3. CCCCCC(C)NCc1coc(-c2ccccc2F)n1 (centres undefined)
4. Cc1ccc(Cc2ccccc2/C(=N/O)NC2CCCCC2)cc1
5. CCCCCC(C)NCc1coc(-c2ccc(OCc3ccc(Cl)cc3)cc2)n1 (centres undefined)
6. CCOc1ccc(-c2nc(CNC3[C@H]4C[C@@H]5C[C@@H](C[C@H]3C5)C4)co2)cc1 (some centres undefined)
7. CCCCCCCCCCOc1ccc(-c2nc(CNC(C)CCCCC)co2)cc1 (centres undefined)
8. CCCCCC(C)NCc1coc(-c2ccc(OCc3ccccc3)cc2)n1 (centres undefined)

1. 7.22
2. 10
3. 3.59
4. 3.48
5. 1.67
6. 6.6
7. 2.9
8. 1.41
